- assay.info: Nuclear factor erythroid 2-related factor 2/antioxidant responsive element (Nrf2/ARE) small molecule agonists: qHTS cell viability counter screen in human keratinocytes (AID 1919968); further: nearly all actives have a fitted effect of over 55% in size
- condition.info: KeratinoSens HaCaT ARE cells viability, CellTiter-Fluor, 24 h; series mostly up to 92.4 µM
Records with an inconclusive call do not appear. Active and inactive are the calls of the source. The call rests on the fitted dose curve; in most records, active means well fitted cell-killing curve with a large enough effect in the repeat runs; inconclusive means weak or mixed curves, or effect the other way; inactive means flat fitted curve, though single readings scatter.
Write down the outcome that applies. Available outcomes: yes (active), no (inactive)

Given `CC(C)C[C@H]1C(=O)N2CCC[C@H]2[C@]2(O)O[C@](NC(=O)[C@@H]3C=C4c5cccc6[nH]c(Br)c(c56)C[C@H]4N(C)C3)(C(C)C)C(=O)N12` , state the outcome it received in this test. no

Given `CCN(Cc1cccc(S(=O)(=O)O)c1)c1ccc(C(=C2C=CC(=[N+](CC)Cc3cccc(S(=O)(=O)O)c3)C=C2)c2ccc(O)cc2S(=O)(=O)[O-])cc1` , state the outcome it received in this test. yes

Given Cc1ncc([N+](=O)[O-])n1CC(O)CCl (stereo not given) , state the outcome it received in this test. no

Given `CCN1CCC[C@H]1CNC(=O)c1c(OC)ccc(Br)c1OC` , state the outcome it received in this test. no

Given `CC(C)CCOC(=O)c1ccc(N(C)C)cc1` , state the outcome it received in this test. no

Given `Cc1ccc(NC=O)c(C)c1` , state the outcome it received in this test. no

Given `CCC(=O)Oc1ccc(/C(CC)=C(\CC)c2ccc(OC(=O)CC)cc2)cc1` , state the outcome it received in this test. no

Given `CCN(CC)c1ccc2c(c1)Oc1cc(N(CC)CC)ccc1C21OC(=O)c2ccccc21` , state the outcome it received in this test. yes

Given `O=C(O)COC(=O)Cc1ccccc1Nc1c(Cl)cccc1Cl` , state the outcome it received in this test. no

Given `CC1=Nc2ccc3ccccc3c2C1(C)C` , state the outcome it received in this test. no
